# ASSAYED_SYSTEM: B-Raf^V600E (Homo sapiens, UniProt P15056, V600E)
# Sequence (P15056 433-726 V600E): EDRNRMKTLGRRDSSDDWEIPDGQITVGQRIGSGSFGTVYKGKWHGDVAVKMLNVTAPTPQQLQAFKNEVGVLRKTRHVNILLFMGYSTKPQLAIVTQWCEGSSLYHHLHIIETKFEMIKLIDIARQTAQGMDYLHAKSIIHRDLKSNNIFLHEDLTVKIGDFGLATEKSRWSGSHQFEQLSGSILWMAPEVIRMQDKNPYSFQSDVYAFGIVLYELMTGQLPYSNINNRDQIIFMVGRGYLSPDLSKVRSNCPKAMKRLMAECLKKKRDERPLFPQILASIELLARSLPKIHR
# EXPERIMENTAL_PROTOCOL: In vitro B-Raf kinase assay
# Assay type: biochemical
# TEST_PARAMETERS: read-out: Inhibition rate (%) B-Raf^V600E, 2μM of compound

>  <COMPOUND>
COc1cccc(-c2ccc(C=C3SC(=O)NC3=O)o2)c1 [Compound 19b]

>  <inhibition at 2 µM [%]>
34

$$$$
>  <COMPOUND>
O=C1NC(=O)C(=Cc2ccc(-c3ccc4ccccc4c3)o2)S1 [Compound 19j]

>  <inhibition at 2 µM [%]>
51

$$$$
>  <COMPOUND>
O=C1NC(=O)C(=Cc2ccc(-c3ccc([N+](=O)[O-])cc3)o2)S1 [Compound 19c]

>  <inhibition at 2 µM [%]>
48

$$$$
>  <COMPOUND>
O=C1C(=Cc2ccc(-c3ccc([N+](=O)[O-])cc3)o2)Cc2ccccc21 [Compound 16d]

>  <inhibition at 2 µM [%]>
34

$$$$
>  <COMPOUND>
CC(C)(C)c1ccc(-c2ccc(C=C3SC(=O)NC3=O)o2)cc1 [Compound 19i]

>  <inhibition at 2 µM [%]>
34

$$$$

###

# ASSAYED_SYSTEM: B-Raf^V600E (Homo sapiens, UniProt P15056, V600E)
# EXPERIMENTAL_PROTOCOL: In vitro B-Raf kinase assay
# Type: biochemical
# TEST_PARAMETERS: [I]=1μM
ATTRIBUTE_MEASURED: Inhibition rate B-Raf^V600E (%)

>  <MOLECULE>
O=C1NC(=S)NC(=O)C1=Cc1ccc(-c2ccc(Cl)cc2C(F)(F)F)o1 [Compound 22o]

>  <ATTRIBUTE_MEASURED>
Inhibition rate B-Raf^V600E

>  <REPORTED_RESULT>
49

$$$$
>  <MOLECULE>
O=C1NC(=S)NC(=O)C1=Cc1ccc(-c2cccc(C(F)(F)F)c2)o1 [Compound 22l]

>  <ATTRIBUTE_MEASURED>
Inhibition rate B-Raf^V600E

>  <REPORTED_RESULT>
45

$$$$
>  <MOLECULE>
O=C1NC(=S)NC(=O)C1=Cc1ccc(-c2ccc(Cl)cc2[N+](=O)[O-])o1 [Compound 22n]

>  <ATTRIBUTE_MEASURED>
Inhibition rate B-Raf^V600E

>  <REPORTED_RESULT>
22

$$$$
>  <MOLECULE>
O=C1NC(=S)NC(=O)C1=Cc1ccc(-c2ccc(Cl)c(C(F)(F)F)c2)o1 [Compound 22p]

>  <ATTRIBUTE_MEASURED>
Inhibition rate B-Raf^V600E

>  <REPORTED_RESULT>
48

$$$$

###

# ASSAYED_SYSTEM: B-Raf^V600E (Homo sapiens, UniProt P15056, V600E)
# EXPERIMENTAL_PROTOCOL: In vitro B-Raf kinase assay
# Type: biochemical
# TEST_PARAMETERS: read-out: Inhibition rate (%) B-Raf^V600E

>  <COMPOUND>
COc1cccc(-c2ccc(C=C3C(=O)NC(=S)NC3=O)o2)c1 [Compound 22b]

>  <ASSAYED_SYSTEM>
B-Raf^V600E (Homo sapiens, UniProt P15056, V600E)

>  <MEASURE_UNIT>
%

>  <inhibition at 2 µM>
63

$$$$
>  <COMPOUND>
O=C1NC(=S)NC(=O)C1=Cc1ccc(-c2ccccc2[N+](=O)[O-])o1 [Compound 22a]

>  <ASSAYED_SYSTEM>
B-Raf^V600E (Homo sapiens, UniProt P15056, V600E)

>  <MEASURE_UNIT>
%

>  <inhibition at 2 µM>
61

$$$$
>  <COMPOUND>
O=C1NC(=S)NC(=O)C1=Cc1ccc(-c2ccc(Cl)cc2)o1 [Compound 22e]

>  <ASSAYED_SYSTEM>
B-Raf^V600E (Homo sapiens, UniProt P15056, V600E)

>  <MEASURE_UNIT>
%

>  <inhibition at 2 µM>
69

$$$$
>  <COMPOUND>
CC(C)(C)c1ccc(-c2ccc(C=C3C(=O)NC(=S)NC3=O)o2)cc1 [Compound 22i]

>  <ASSAYED_SYSTEM>
B-Raf^V600E (Homo sapiens, UniProt P15056, V600E)

>  <MEASURE_UNIT>
%

>  <inhibition at 2 µM>
57

$$$$
>  <COMPOUND>
Cc1ccc(-c2ccc(C=C3C(=O)NC(=S)NC3=O)o2)cc1 [Compound 22g]

>  <ASSAYED_SYSTEM>
B-Raf^V600E (Homo sapiens, UniProt P15056, V600E)

>  <MEASURE_UNIT>
%

>  <inhibition at 2 µM>
59

$$$$
>  <COMPOUND>
O=C1NC(=S)NC(=O)C1=Cc1ccc(-c2ccc([N+](=O)[O-])cc2)o1 [Compound 22c]

>  <ASSAYED_SYSTEM>
B-Raf^V600E (Homo sapiens, UniProt P15056, V600E)

>  <MEASURE_UNIT>
%

>  <inhibition at 2 µM>
59

$$$$
